Where these numbers come from: PubChem BioAssay AID1919006

Test system: 885512-296-R-J2-PDC complex spheroid growth, % test/control
EXPERIMENTAL_DETAILS: Anticancer human tumor 885512-296-R-J2-PDC patient-derived breast carcinoma cell line growth inhibition [AhR]; active means viability on the fitted dose curve at most 10% of control; inactive means the rest
CONDITION_LABEL: second compound 10 µM; first compound 1 µM
Give your call using only these classes: class 1 for active, class 0 for inactive

COMPOUND	QUALITATIVE_LABEL
COc1cc(C2c3cc4c(cc3C(OC3OC5COC(C)OC5C(O)C3O)C3COC(=O)C23)OCO4)cc(OC)c1O (stereo unspecified) + CC(CO)NC(=O)c1cc(-c2ccc(Cl)cc2)nn(-c2cnn(C)c2)c1=O	class 0

Kindly provide the recorded test outcome for the following compound: COc1cc(C2c3cc4c(cc3C(OC3OC5COC(C)OC5C(O)C3O)C3COC(=O)C23)OCO4)cc(OC)c1O (stereo unspecified) + Cc1cncc(-c2nc(NCCc3c[nH]c4ccccc34)c3ncn(C(C)C)c3n2)c1
class 0

# lookup: test call for Nc1ccccc1NC(=O)c1ccc(CNC(=O)OCc2cccnc2)cc1 + Cc1ccccc1N=Nc1ccc(NC(=O)c2ccnn2C)c(C)c1
class 0

What did the test return for Nc1ccccc1NC(=O)c1ccc(CNC(=O)OCc2cccnc2)cc1 + Cc1cncc(-c2nc(NCCc3c[nH]c4ccccc34)c3ncn(C(C)C)c3n2)c1 ?
class 0

Assay outcome for NS(=O)(=O)OCC1CC(n2ccc3c(NC4CCc5ccccc54)ncnc32)CC1O (stereo unspecified) + CC(CO)NC(=O)c1cc(-c2ccc(Cl)cc2)nn(-c2cnn(C)c2)c1=O : what was it?
class 1

Could you please tell me the result logged for NS(=O)(=O)OCC1CC(n2ccc3c(NC4CCc5ccccc54)ncnc32)CC1O (stereo unspecified) + Cc1cncc(-c2nc(NCCc3c[nH]c4ccccc34)c3ncn(C(C)C)c3n2)c1 in this assay?
class 1

----------
System: 885512-296-R-J2-PDC complex spheroid growth, % test/control
EXPERIMENTAL_DETAILS: Anticancer human tumor 885512-296-R-J2-PDC cell line growth inhibition [AhR];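 further: spheroids exposed to compounds for seven days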
CONDITION_LABEL: second compound 0.316 µM; first compound 0.1 µM; stronger effect = lower value
MEASUREMENT_KIND: viability, T/C (%)
I only need the number, in %, no unit after it.

Example entries begin here.
COMPOUND	MEASUREMENT_KIND	QUANTITATIVE_READOUT
COc1ccc([C@@H](O)c2cc(-c3ncnc4cc(N5CCOCC5)ccc34)c(F)cc2Cl)nn1 + Cc1cncc(-c2nc(NCCc3c[nH]c4ccccc34)c3ncn(C(C)C)c3n2)c1	viability, T/C	89.7
CC[C@@]1(O)C(=O)OCc2c1cc1n(c2=O)Cc2cc3c(CN(C)C)c(O)ccc3nc2-1 + Cc1ccccc1N=Nc1ccc(NC(=O)c2ccnn2C)c(C)c1	viability, T/C	7.03
Nc1ncn(C2CC(O)C(CO)O2)c(=O)n1 (stereo unspecified) + Cc1cncc(-c2nc(NCCc3c[nH]c4ccccc34)c3ncn(C(C)C)c3n2)c1	viability, T/C	93.7
COc1cc(Nc2ncc3c(n2)-c2ccc(Cl)cc2C(c2c(F)cccc2OC)=NC3)ccc1C(=O)O + CC(CO)NC(=O)c1cc(-c2ccc(Cl)cc2)nn(-c2cnn(C)c2)c1=O	viability, T/C	45.5

Please report the recorded viability, T/C for COc1cc(C2c3cc4c(cc3C(OC3OC5COC(C)OC5C(O)C3O)C3COC(=O)C23)OCO4)cc(OC)c1O (stereo unspecified) + Cc1cncc(-c2nc(NCCc3c[nH]c4ccccc34)c3ncn(C(C)C)c3n2)c1 .
101

Please give the measured viability, T/C for this compound: O=C(c1cc(Cc2n[nH]c(=O)c3ccccc23)ccc1F)N1CCN(C(=O)C2CC2)CC1 + Cc1ccccc1N=Nc1ccc(NC(=O)c2ccnn2C)c(C)c1
145

----------
Tested on: 885512-296-R-J2-PDC complex spheroid growth, % test/control
EXPERIMENTAL_DETAILS: Anticancer human tumor 885512-296-R-J2-PDC cell line growth inhibition [AhR];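 further: spheroids exposed to compounds for seven days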
CONDITION_LABEL: second compound 10 µM; first compound 0.1 µM; stronger effect = lower value
Decision: viability, T/C beneath 20% gives YES; viability, T/C meeting or exceeding 20% gives NO.

Solved cases (6 shown):
MOLECULE	QUALITATIVE_LABEL
O=C(c1cc(Cc2n[nH]c(=O)c3ccccc23)ccc1F)N1CCN(C(=O)C2CC2)CC1 + Cc1ccccc1N=Nc1ccc(NC(=O)c2ccnn2C)c(C)c1	NO
Nc1ccn(C2OC(CO)C(O)C2(F)F)c(=O)n1 (configuration not stated) + Cc1ccccc1N=Nc1ccc(NC(=O)c2ccnn2C)c(C)c1	YES
Nc1ccccc1NC(=O)c1ccc(CNC(=O)OCc2cccnc2)cc1 + Cc1ccccc1N=Nc1ccc(NC(=O)c2ccnn2C)c(C)c1	NO
CC1COCCN1c1cc(C2(S(C)(=N)=O)CC2)nc(-c2ccnc3[nH]ccc23)n1 (configuration not stated) + Cc1cncc(-c2nc(NCCc3c[nH]c4ccccc34)c3ncn(C(C)C)c3n2)c1	NO
CC[C@@]1(O)C(=O)OCc2c1cc1n(c2=O)Cc2cc3c(CN(C)C)c(O)ccc3nc2-1 + Cc1cncc(-c2nc(NCCc3c[nH]c4ccccc34)c3ncn(C(C)C)c3n2)c1	YES
NS(=O)(=O)OCC1CC(n2ccc3c(NC4CCc5ccccc54)ncnc32)CC1O (configuration not stated) + CC(CO)NC(=O)c1cc(-c2ccc(Cl)cc2)nn(-c2cnn(C)c2)c1=O	NO

viability, T/C under 20%? Item: O=C(C=Cc1cccc(S(=O)(=O)Nc2ccccc2)c1)NO + Cc1cncc(-c2nc(NCCc3c[nH]c4ccccc34)c3ncn(C(C)C)c3n2)c1
NO

----------
IC50 values by entry
Tested on: 885512-296-R-J2-PDC complex spheroid growth, % test/control
EXPERIMENTAL_DETAILS: Anticancer human tumor 885512-296-R-J2-PDC cell line growth inhibition [AhR];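 further: spheroids exposed to compounds for seven days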
CONDITION_LABEL: curve of first compound; second compound 1 µM
Just the number in nM, nothing appended.

Which IC50 reading was recorded for the compound COc1ccc([C@@H](O)c2cc(-c3ncnc4cc(N5CCOCC5)ccc34)c(F)cc2Cl)nn1 + Cc1ccccc1N=Nc1ccc(NC(=O)c2ccnn2C)c(C)c1 ?
6550

Given O=C(C=Cc1cccc(S(=O)(=O)Nc2ccccc2)c1)NO + CC(CO)NC(=O)c1cc(-c2ccc(Cl)cc2)nn(-c2cnn(C)c2)c1=O , state its recorded IC50.
1510

# IC50 lookup, item O=C(C=Cn1cnc(-c2cc(C(F)(F)F)cc(C(F)(F)F)c2)n1)NNc1cnccn1 + Cc1cncc(-c2nc(NCCc3c[nH]c4ccccc34)c3ncn(C(C)C)c3n2)c1
65.8

# get_value(readout='IC50', item= CC1COCCN1c1cc(C2(S(C)(=N)=O)CC2)nc(-c2ccnc3[nH]ccc23)n1 (centres undefined) + Cc1ccccc1N=Nc1ccc(NC(=O)c2ccnn2C)c(C)c1 )
1790

----------
Test system: 885512-296-R-J2-PDC complex spheroid growth, % test/control
EXPERIMENTAL_DETAILS: Anticancer human tumor 885512-296-R-J2-PDC cell line growth inhibition [AhR];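 further: spheroids exposed to compounds for seven days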
CONDITION_LABEL: second compound 10 µM; first compound 0.01 µM; stronger effect = lower value
Excerpt: Multicellular complex tumor spheroid response to aryl hydrocarbon receptor antagonists in combination with a variety of drugs and investigational agents in selected tumor cell lines […] Compounds. […] If the clinical Cmax for an agent had not been determined, the highest concentration tested was 10 microM (Table 1). […]
MEASUREMENT_KIND: viability, T/C (%)
# unit: % | format: bare number

Examples with their reported viability, T/C follow.
COMPOUND	QUANTITATIVE_READOUT
Cn1ncnc1C1c2n[nH]c(=O)c3cc(F)cc(c23)NC1c1ccc(F)cc1 (stereo unspecified) + CC(CO)NC(=O)c1cc(-c2ccc(Cl)cc2)nn(-c2cnn(C)c2)c1=O	79.2
CC1COCCN1c1cc(-c2ccnn2C)c2ccnc(-c3ccn[nH]3)c2n1 (stereo unspecified) + Cc1ccccc1N=Nc1ccc(NC(=O)c2ccnn2C)c(C)c1	47.7
Cn1ncnc1C1c2n[nH]c(=O)c3cc(F)cc(c23)NC1c1ccc(F)cc1 (stereo unspecified) + Cc1cncc(-c2nc(NCCc3c[nH]c4ccccc34)c3ncn(C(C)C)c3n2)c1	18.1
CC[C@@]1(O)C(=O)OCc2c1cc1n(c2=O)Cc2cc3c(CN(C)C)c(O)ccc3nc2-1 + Cc1ccccc1N=Nc1ccc(NC(=O)c2ccnn2C)c(C)c1	21.4
CC1COCCN1c1cc(-c2ccnn2C)c2ccnc(-c3ccn[nH]3)c2n1 (stereo unspecified) + CC(CO)NC(=O)c1cc(-c2ccc(Cl)cc2)nn(-c2cnn(C)c2)c1=O	84.2

With those in mind, consider the next compound.
Requested field: viability, T/C. Item: Nc1ncn(C2CC(O)C(CO)O2)c(=O)n1 (stereo unspecified) + CC(CO)NC(=O)c1cc(-c2ccc(Cl)cc2)nn(-c2cnn(C)c2)c1=O
92.5

----------
Items are presented alongside their recorded viability, T/C.
Test system: 885512-296-R-J2-PDC complex spheroid growth, % test/control
EXPERIMENTAL_DETAILS: Anticancer human tumor 885512-296-R-J2-PDC cell line growth inhibition [AhR];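 further: spheroids exposed to compounds for seven days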
CONDITION_LABEL: second compound 1 µM; first compound 0.316 µM; stronger effect = lower value

Please review the following examples before continuing.
COMPOUND	TESTED_ON	viability, T/C
COc1cc(C2c3cc4c(cc3C(OC3OC5COC(C)OC5C(O)C3O)C3COC(=O)C23)OCO4)cc(OC)c1O (configuration not stated) + Cc1cncc(-c2nc(NCCc3c[nH]c4ccccc34)c3ncn(C(C)C)c3n2)c1	885512-296-R-J2-PDC complex spheroid growth, % test/control	59.3%
NS(=O)(=O)OCC1CC(n2ccc3c(NC4CCc5ccccc54)ncnc32)CC1O (configuration not stated) + CC(CO)NC(=O)c1cc(-c2ccc(Cl)cc2)nn(-c2cnn(C)c2)c1=O	885512-296-R-J2-PDC complex spheroid growth, % test/control	17.3%

What value of viability, T/C has been recorded for this entry: CC1COCCN1c1cc(C2(S(C)(=N)=O)CC2)nc(-c2ccnc3[nH]ccc23)n1 (configuration not stated) + Cc1ccccc1N=Nc1ccc(NC(=O)c2ccnn2C)c(C)c1
95%

Which viability, T/C is listed for CC1(C)CCC(CN2CCN(c3ccc(C(=O)NS(=O)(=O)c4ccc(NCC5CCOCC5)c([N+](=O)[O-])c4)c(Oc4cnc5[nH]ccc5c4)c3)CC2)=C(c2ccc(Cl)cc2)C1 + Cc1ccccc1N=Nc1ccc(NC(=O)c2ccnn2C)c(C)c1 ?
94.2%

Which viability, T/C reading was recorded for the compound O=C(c1cc(Cc2n[nH]c(=O)c3ccccc23)ccc1F)N1CCN(C(=O)C2CC2)CC1 + Cc1ccccc1N=Nc1ccc(NC(=O)c2ccnn2C)c(C)c1 ?
132%

Consider the compound O=C(c1cc(Cc2n[nH]c(=O)c3ccccc23)ccc1F)N1CCN(C(=O)C2CC2)CC1 + CC(CO)NC(=O)c1cc(-c2ccc(Cl)cc2)nn(-c2cnn(C)c2)c1=O and give its measured viability, T/C.
105%

# query: viability, T/C of entry Nc1ccccc1NC(=O)c1ccc(CNC(=O)OCc2cccnc2)cc1 + Cc1cncc(-c2nc(NCCc3c[nH]c4ccccc34)c3ncn(C(C)C)c3n2)c1
77.7%
